# ASSAYED_TARGET: AFP158 loaded T2 cells (human;, UniProt P61769 21-119)
# Sequence (chain, as listed by the source, chain 2 of 2): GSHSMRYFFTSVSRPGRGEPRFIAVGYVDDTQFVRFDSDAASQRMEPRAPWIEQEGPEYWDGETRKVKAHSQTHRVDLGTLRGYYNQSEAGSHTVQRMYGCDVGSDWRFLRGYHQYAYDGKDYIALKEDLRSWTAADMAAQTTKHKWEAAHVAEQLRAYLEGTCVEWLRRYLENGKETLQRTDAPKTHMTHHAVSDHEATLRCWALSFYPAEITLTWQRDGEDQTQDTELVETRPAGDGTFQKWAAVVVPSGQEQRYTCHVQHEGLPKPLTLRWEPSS
# Sequence (P61769 21-119, chain 3 of 2): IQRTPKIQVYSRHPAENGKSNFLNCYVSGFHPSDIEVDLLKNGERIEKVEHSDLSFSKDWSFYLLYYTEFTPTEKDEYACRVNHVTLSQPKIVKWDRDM
# PROTOCOL_DETAILS: flow cytometry
pEC50: −log10 of the molar value.

BINDER	pEC50
AS179723 scFv-mIgG2aFc (Fc fusion) QAGLTQPPSMSGSPRQSVTISCTGSSNNIGGNYVNWYQHLPGTAPKLLIYDNKNRPSGVPEQISGSKSGSSASLTITGLQAEDEGDYYCASWDDSLSAVVFGGGTHLTVLGGGGSGGGGSGGGGSEVQLVESGGGLVQPGGSLRLSCAASGFTFLNYAMSWVRQAPGKGLEWVSSNSGAGSTYYSDSVKGRFTISRDYAKNVVYLQLNSLKTEDTGMYYCAKGTNVGSWSSLHYWGQGTQVTVSS	8.83
AS148691 scFv-mIgG2aFc (Fc fusion) DIQMTQSPSSLSASVGDRVTITCRASQSVSSAVAWYQQKPGKAPKLLIYSASSLYSGVPSRFSGSRSGTDFTLTISSLQPEDFATYYCQQYYGAYLITFGQGTKVEIKGGGGSGGGGSGGGGSEVQLVESGGGLVQPGGSLRLSCAASGFNLYYSSIHWVRQAPGKGLEWVASIYSSYGSTSYADSVKGRFTISADTSKNTAYLQMNSLRAEDTAVYYCARVGPGYYGIDYWGQGTLVTVSS	6.38
AS170036 scFv-mIgG2aFc (Fc fusion) QLVLTQPSSVSGTPGQTVTISCAGTSSDVGSENYVSWYRQLPGTAPKLLIYQVNKRASGIADRFSGSKSGNTASMTISGLQSADEADYYCASYRSSDHNIVFGGGTHLTVLGGGGSGGGGSGGGGSAVQLVESGGGLVQPGGSLRLSCTASGFTFSSYAMSWVRQAPGKGLEWVSTINSGTGSPYYADSVKGRFTISRDNAKNTLYLQLNSLKTEDTAMYYCAKNFFDGSWFLGPPAMDYWGKGTLVTISS	8.36
AS179732 scFv-mIgG2aFc (Fc fusion) NFMLTQPPSMSGSPRQSVTISCTGSSSNIGGNYVNWYQHLPGTAPKLLIYDNSNRASGVPERFSGSKSGSSASLTITGLQAEDEGDYYCASWDDSLSGAVFGGGTHLTVLGGGGSGGGGSGGGGSEVQLVESGGGLVQPGGSLRLSCAASGFTFLNYAMSWVRQAPGKGLEWVSSNSGAGSTYYSDSVKGRFTISRDYAKNVVYLQLNSLKTEDTGMYYCAKGTNVGSWSSLHYWGQGTQVTVSS	8.94
